- SYSTEM TESTED: Transforming acidic coiled-coil-containing protein 3 (Homo sapiens)
- ASSAY REMARKS: inhibition of ARNT PAS-B/TACC3 complex formation – biochemical, AlphaScreen, cherry-picked samples, confirmation (AID 651703);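 further: TACC3 partner is the GST-tagged E629A mutant dimer; hits lower the signal meaning they disrupt ARNT binding to TACC3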
- CONDITIONS USED: AlphaScreen His-ARNT PAS-B / GST-TACC3 binding, luminescence
Let's look at some compounds and their measured AC50.

Exam item: Quick one: AC50 for O=C(c1ccccn1)N1CC[C@@H]2[C@H]1c1cc(Br)ccc1N[C@@H]2CO ?
Marked response: 27.7 µM

Exam item: Give the measured AC50 of Cc1ccc(C)c(S(=O)(=O)N2CCN(Cc3ccc(O)c4ncccc34)CC2)c1 .
Marked response: 5.27 µM

Exam item: So what's the measured AC50 for this one? O=S(=O)(c1ccccc1)c1nc(-c2ccco2)oc1Nc1ccccc1
Marked response: 55.5 µM

Exam item: Consider the compound O=C(CSc1ccc(-c2ccccn2)nn1)NCc1ccccc1 and give its measured AC50.
Marked response: 4.18 µM

New cases:
Exam item: Given Oc1c(CN2CCN(c3ccccc3)CC2)cc(Br)c2cccnc12 , state its recorded AC50.
Marked response: 1.07 µM

Exam item: // AC50 lookup, key: O=S(=O)(N[C@H]1CC[C@@H](CCn2cc(-c3ccccn3)nn2)O[C@H]1CO)c1cccc(Cl)c1
Marked response: 23.4 µM

Exam item: Please look up its AC50: COc1ccccc1-c1nnc(NC(=O)c2cccc(N3C(=O)CCC3=O)c2)o1
Marked response: 29 µM

Exam item: Find the recorded AC50 belonging to O=S(=O)(N[C@@H]1CC[C@@H](CCn2cc(-c3ccccn3)nn2)O[C@H]1CO)c1cccc(F)c1 and report it.
Marked response: 21.5 µM

Exam item: I would be grateful if you could share the reported AC50 for Cc1cccc(NC(=O)CSc2cccc3cccnc23)c1C .
Marked response: 33.7 µM

Exam item: Which AC50 is listed for CCN(CC)c1ccc(/C=N/NC(=O)c2ccc3nc[nH]c3c2)c(O)c1 ?
Marked response: 12.5 µM

Exam item: // AC50 lookup, key: O=C(COC(=O)c1ccc([N+](=O)[O-])s1)NCc1ccccc1
Marked response: 37 µM

Exam item: Requested read-out: AC50. Entry: Nn1c(SC/C=C/c2ccccc2)nnc1-c1ccccn1
Marked response: 5.62 µM

Exam item: Which AC50 is listed for O=C(N[C@@H]1CC[C@@H](CCn2cc(-c3ccccn3)nn2)O[C@H]1CO)c1ccc(F)cc1 ?
Marked response: 10.2 µM

Exam item: Query: AC50; subject: CC(NC(=O)c1ccco1)C(=O)Nc1nc(-c2ccccn2)cs1 (stereo not given)
Marked response: 4.52 µM

Exam item: // AC50 lookup, key: CCC(=O)NC(c1ccc(N(C)C)cc1)c1c(O)ccc2ccccc12 (stereo not given)
Marked response: 35.5 µM

---

- SYSTEM TESTED: Transforming acidic coiled-coil-containing protein 3 (Homo sapiens) (UniProt Q9Y6A5)
- ASSAY REMARKS: inhibition of ARNT PAS-B/TACC3 complex formation – biochemical, AlphaScreen, cherry-picked samples, confirmation (AID 651703);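 further: TACC3 partner is the GST-tagged E629A mutant dimer; hits lower the signal meaning they disrupt ARNT binding to TACC3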
- CONDITIONS USED: AlphaScreen His-ARNT PAS-B / GST-TACC3 binding, luminescence
QUANTITY NAME: AC50

Exam item: Which measured AC50 value corresponds to COc1ccc(Nc2cc3n(c(=O)n2)CCc2cc(OC)c(OC)cc2-3)cc1 ?
Marked response: 68.6 µM

Exam item: Quick one: AC50 of O=C(NC12CC3CC(CC(C3)C1)C2)c1ccc(-c2ccccc2Cl)o1 ?
Marked response: 51 µM

Exam item: Quick one: AC50 for CCOc1cc(/C=C2\SC(=N)N(c3nccs3)C2=O)ccc1OCCN1CCOCC1 ?
Marked response: 35 µM

***
Exam item: Look at this compound and give its reported AC50. CC(=O)N1CCc2[nH]c3ccc(C)cc3c2C1
Marked response: 13.9 µM

Exam item: What does the data say about its AC50? Entry: CC(=O)OC[C@H]1O[C@@H](Sc2cccc3cccnc23)[C@H](OC(C)=O)[C@@H](OC(C)=O)[C@H]1OC(C)=O
Marked response: 11.5 µM

Exam item: Requested read-out: AC50. Entry: O=S(=O)(N[C@@H]1CC[C@H](CCn2cc(-c3ccccn3)nn2)O[C@H]1CO)c1cccc(Cl)c1
Marked response: 22 µM

Exam item: I am curious: what AC50 value has been reported for O=C(N[C@H]1CC[C@@H](CCn2cc(-c3ccccn3)nn2)O[C@@H]1CO)c1ccncc1 ?
Marked response: 15.8 µM

---

- SYSTEM TESTED: Transforming acidic coiled-coil-containing protein 3 (Homo sapiens)
- ASSAY REMARKS: inhibition of ARNT PAS-B/TACC3 complex formation – biochemical, AlphaScreen, cherry-picked samples, confirmation (AID 651703);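 further: TACC3 partner is the GST-tagged E629A mutant dimer; hits lower the signal meaning they disrupt ARNT binding to TACC3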
- CONDITIONS USED: AlphaScreen His-ARNT PAS-B / GST-TACC3 binding, luminescence
QUANTITY NAME: AC50

Example results:
Exam item: Form: Entry = O=C(N[C@@H]1CC[C@H](CCn2cc(-c3ccccn3)nn2)O[C@H]1CO)c1ccccc1 | System = Transforming acidic coiled-coil-containing protein 3 (Homo sapiens) | AC50 = ____
Marked response: 27.6 µM

Exam item: Query for Transforming acidic coiled-coil-containing protein 3 (Homo sapiens): what AC50 does the record show for Cc1cccc(CNc2nc(-c3ccccn3)nnc2-c2ccccc2)c1 ?
Marked response: < 0.5 µM

We next turn to a different molecule, shown below.
Exam item: Given the entry O=C(Nc1nc(-c2ccccn2)cs1)C12CC3CC(CC(O)(C3)C1)C2 , what AC50 was observed with Transforming acidic coiled-coil-containing protein 3 (Homo sapiens)?
Marked response: 6.45 µM

---

- SYSTEM TESTED: Transforming acidic coiled-coil-containing protein 3 (Homo sapiens) (UniProt Q9Y6A5)
- ASSAY REMARKS: inhibition of ARNT PAS-B/TACC3 complex formation – biochemical, AlphaScreen, cherry-picked samples, confirmation (AID 651703);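 further: TACC3 partner is the GST-tagged E629A mutant dimer; hits lower the signal meaning they disrupt ARNT binding to TACC3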
- CONDITIONS USED: AlphaScreen His-ARNT PAS-B / GST-TACC3 binding, luminescence
QUANTITY NAME: AC50

Reference set, count: 8
Exam item: Value lookup for AC50; key = COc1cc(/C=N/Nc2nn3cnnc3c3ccccc23)ccc1O
Marked response: 6.83 µM

Exam item: Which AC50 value is on record for CSc1ccccc1NC(=O)CN(C)C(=O)COc1cccc2cccnc12 ?
Marked response: 13.8 µM

Exam item: Report AC50 for COc1ccc(C2C(C#N)=C(N)Oc3n[nH]c(-c4ccccn4)c32)c(OC)c1OC (centres undefined) please.
Marked response: 53.3 µM

Exam item: GET /values?readout=AC50&item= CC(C)[C@H](NC(=O)c1ccccc1Cl)C(=O)Nc1nc(-c2ccccn2)cs1
Marked response: 6.72 µM

Exam item: Look up AC50 for this compound: c1ccc(CNc2nc(-c3ccccn3)nnc2-c2ccccc2)cc1
Marked response: < 0.5 µM

Exam item: Give the measured AC50 of O=C(CSc1ccc(-c2ccccn2)nn1)c1ccc([N+](=O)[O-])cc1 .
Marked response: 4.73 µM

Exam item: Fill blank: measured AC50 of the compound COc1ccc(CCNC(=O)CSc2nnc3ccc(-c4ccccn4)nn23)cc1 is ____.
Marked response: 33.5 µM

Exam item: Item under review: O=C(N/N=C\c1cccc([N+](=O)[O-])c1O)C1COc2ccccc2O1 (centres undefined) . Reported AC50?
Marked response: 14.7 µM

***
Exam item: For the compound Oc1c(I)cc(I)c2cccnc12 , what AC50 is on record?
Marked response: 7.46 µM

Exam item: Consider the compound shown here: CC(Oc1ccc(F)cc1)C(=O)Nc1nc(-c2ccccn2)cs1 (centres undefined) What is its recorded AC50?
Marked response: 8.7 µM

Exam item: GET /values?readout=AC50&item= O=C(CSc1nnc(CNC(=O)c2ccc(F)cc2)o1)Nc1nccs1
Marked response: 61.9 µM

Exam item: Would you mind telling me what AC50 value was observed for COc1ccccc1-c1nnc(NC(=O)Cc2ccccc2)o1 ?
Marked response: 35 µM

Exam item: I would be grateful if you could share the reported AC50 for O=C(N/N=C/c1ccccc1O)C1SCCCS1 .
Marked response: 22.6 µM

Exam item: Look up AC50 for this compound: O=C(CN1CCCCCCC1)N/N=C/c1ccc(F)c(F)c1
Marked response: 65.8 µM

Exam item: If you can, please state the reported AC50 value of C/C(=N\NC(=O)C(c1ccccc1)c1ccccc1)c1ccc(O)cc1 .
Marked response: 43.1 µM

Exam item: Need AC50, item c1ccc(-c2nnc(-c3ccccn3)nc2Nc2cnc3ccccc3n2)cc1
Marked response: < 0.5 µM

Exam item: For the compound shown here, Cc1ccc(S(=O)(=O)CCc2nnc(NC(=O)c3ccccn3)s2)cc1 , give the reported AC50.
Marked response: 3.01 µM

Exam item: Name the recorded AC50 for CN1CCN(c2nc(-c3ccccn3)nnc2-c2ccccc2)CC1 .
Marked response: < 0.5 µM

Exam item: // query AC50 value for entry O=C(CSc1cccc2cccnc12)OCC(=O)c1ccccc1
Marked response: 37.3 µM
